Reference source: ChEMBL document CHEMBL6092167

system: Escherichia coli; experiment: Antibacterial activity against Escherichia coli ATCC 25922 incubated for 18 to 24 hrs by broth microdilution method; format: functional; conditions: time 18-24 hrs
Non-standard residues stand in square brackets, D forms with d. Residues, ends and D or L forms follow the SMILES beside them. Bip = N[C@@H](Cc1ccc(-c2ccccc2)cc1)C(=O)O; pY = N[C@@H](Cc1ccc(OP(=O)(O)O)cc1)C(=O)O; pT = C[C@@H](OP(=O)(O)O)[C@H](N)C(=O)O; 2Nal = N[C@@H](Cc1ccc2ccccc2c1)C(=O)O
Measured MIC, listed per entry for reference.

CC(C)C[C@H](NC(=O)[C@H](CC(C)C)NC(=O)[C@H](Cc1ccc(OP(=O)(O)O)cc1)NC(=O)[C@H](CCCCN)NC(=O)[C@H](CC(C)C)NC(=O)[C@H](CCCNC(=N)N)NC(=O)[C@H](CCCCN)NC(=O)[C@H](Cc1ccc(-c2ccccc2)cc1)NC(=O)[C@H](CC(C)C)NC(=O)CN)C(N)=O (H-GL[Bip]KRLK[pY]LL-NH2) :: 8 µM
NC[C@H]1O[C@H](O[C@H]2[C@H](O)[C@@H](O[C@H]3O[C@H](CO)[C@@H](O)[C@H](N)[C@H]3O)[C@H](N)C[C@@H]2N)[C@H](O)[C@@H](O)[C@@H]1O :: 8 µM
CC(C)C[C@H](NC(=O)[C@H](CC(C)C)NC(=O)[C@@H](NC(=O)[C@H](CCCCN)NC(=O)[C@H](Cc1ccc2ccccc2c1)NC(=O)[C@H](CCCNC(=N)N)NC(=O)[C@H](CCCCN)NC(=O)[C@H](CC(C)C)NC(=O)[C@H](CC(C)C)NC(=O)CN)[C@@H](C)O)C(N)=O (H-GLLKR[2Nal]KTLL-NH2) :: 16 µM
CC(C)C[C@H](NC(=O)[C@H](CC(C)C)NC(=O)[C@H](Cc1ccc(O)cc1)NC(=O)[C@H](CCCCN)NC(=O)[C@H](CC(C)C)NC(=O)[C@H](CCCNC(=N)N)NC(=O)[C@H](CCCCN)NC(=O)[C@H](Cc1ccc2ccccc2c1)NC(=O)[C@H](CC(C)C)NC(=O)CN)C(N)=O (H-GL[2Nal]KRLKYLL-NH2) :: 8 µM
CC(C)C[C@H](NC(=O)[C@H](CC(C)C)NC(=O)[C@@H](NC(=O)[C@H](CCCCN)NC(=O)[C@H](Cc1ccc(-c2ccccc2)cc1)NC(=O)[C@H](CCCNC(=N)N)NC(=O)[C@H](CCCCN)NC(=O)[C@H](CC(C)C)NC(=O)[C@H](CC(C)C)NC(=O)CN)[C@@H](C)OP(=O)(O)O)C(N)=O (H-GLLKR[Bip]K[pT]LL-NH2) :: 64 µM

Ask | Request the reported MIC associated with `CN[C@H](CC(C)C)C(=O)N[C@H]1C(=O)N[C@@H](CC(N)=O)C(=O)N[C@H]2C(=O)N[C@H]3C(=O)N[C@H](C(=O)N[C@H](C(=O)O)c4cc(O)cc(O)c4-c4cc3ccc4O)[C@H](O)c3ccc(c(Cl)c3)Oc3cc2cc(c3O[C@@H]2O[C@H](CO)[C@@H](O)[C@H](O)[C@H]2O[C@H]2C[C@](C)(N)[C@H](O)[C@H](C)O2)Oc2ccc(cc2Cl)[C@H]1O`
Reply | 128 µM

Ask | Recorded MIC of `O=C(O)c1cn(C2CC2)c2cc(N3CCNCC3)c(F)cc2c1=O` , please.
Reply | < 1 µM
